# reported IC50; entries follow
Biological target: Neuronal acetylcholine receptor; alpha3/beta4 (Homo sapiens, UniProt P30926+P32297)
Sequence (P30926 whole entry): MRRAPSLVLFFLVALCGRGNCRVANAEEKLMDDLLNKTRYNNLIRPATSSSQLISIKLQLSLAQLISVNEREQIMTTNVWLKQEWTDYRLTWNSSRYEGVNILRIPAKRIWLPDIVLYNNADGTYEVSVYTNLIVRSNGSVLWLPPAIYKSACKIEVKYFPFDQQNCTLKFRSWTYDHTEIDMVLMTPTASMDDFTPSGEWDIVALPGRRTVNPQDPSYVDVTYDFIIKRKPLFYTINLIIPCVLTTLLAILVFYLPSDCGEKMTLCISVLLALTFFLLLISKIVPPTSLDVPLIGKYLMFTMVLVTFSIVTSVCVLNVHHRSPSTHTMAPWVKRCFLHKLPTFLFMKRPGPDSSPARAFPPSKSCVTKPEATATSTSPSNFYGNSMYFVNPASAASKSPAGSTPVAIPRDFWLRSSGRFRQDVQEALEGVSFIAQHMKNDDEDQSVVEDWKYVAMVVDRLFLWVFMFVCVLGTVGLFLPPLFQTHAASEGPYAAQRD
Sequence (P32297 whole entry): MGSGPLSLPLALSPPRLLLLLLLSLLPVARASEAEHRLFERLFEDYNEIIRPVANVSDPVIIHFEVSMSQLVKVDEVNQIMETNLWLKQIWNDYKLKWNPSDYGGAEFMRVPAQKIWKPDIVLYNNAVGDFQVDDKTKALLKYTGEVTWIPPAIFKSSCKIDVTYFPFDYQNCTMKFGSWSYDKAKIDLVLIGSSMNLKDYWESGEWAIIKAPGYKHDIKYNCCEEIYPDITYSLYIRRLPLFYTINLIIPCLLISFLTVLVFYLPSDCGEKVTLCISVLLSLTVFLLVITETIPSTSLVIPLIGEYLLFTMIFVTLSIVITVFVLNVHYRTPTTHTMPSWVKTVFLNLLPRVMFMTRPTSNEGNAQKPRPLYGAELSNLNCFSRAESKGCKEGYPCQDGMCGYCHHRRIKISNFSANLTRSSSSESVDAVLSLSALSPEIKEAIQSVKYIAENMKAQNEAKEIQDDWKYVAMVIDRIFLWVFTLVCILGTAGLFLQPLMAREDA
Assay: Antagonist activity at human nAChR alpha3/beta4 receptor expressed in HEK ts201 cells assessed as calcium accumulation by fluorescence analysis
Type: functional, cell-based
Conditions: read-out: pIC50 (converted)
Respond with the bare value in µM.

Observe how each entry below is paired with its result.
>>> print(df.to_string())
                                   compound                           subject_of_test  endpoint_unit  measured_value
0  CC(=O)Nc1ccccc1C(=O)OCC1CCCN(CCCc2ccccc2)C1 (configuration not stated)  Neuronal acetylcholine receptor; alpha3/beta4 (Homo sapiens, UniProt P30926+P32297)             µM            4.27
1  CO[C@@H]1C[C@H](OC)C[C@@H](OCCN2CCCC(COC(=O)c3ccccc3N3C(=O)CC(C)C3=O)C2)C1 (some centres not stated)  Neuronal acetylcholine receptor; alpha3/beta4 (Homo sapiens, UniProt P30926+P32297)             µM            41.7

Item C[C@H]1CC(=O)N(c2ccccc2C(=O)OC[C@H]2CCCN(CCCc3ccccc3)C2)C1=O has what recorded IC50?
11

Recorded IC50 of O=C(OCC1CCCN(CCCc2ccccc2)C1)c1ccccc1N1C(=O)CC(CCc2ccccc2)C1=O (configuration not stated) , please.
33.1

====

Ratio pIC50 by entry:
Species: Homo sapiens
Test: Selectivity ratio of pIC50 for human nAChR alpha3/beta4 receptor to pIC50 for human nAChR alpha4/beta2 receptor
// keep it numeric: no unit symbol after the value

Guide cases for Ratio pIC50, answers given:
>>> print(df.to_string())
                                   compound     property  measured_value
0  CC1CC(=O)N(c2ccccc2C(=O)OCC2CCCN(CCCCCc3ccccc3)C2)C1=O (centres undefined)  Ratio pIC50           -0.77
1  O=C(OCC1CCCN(CCCc2ccccc2)C1)c1ccc(-c2ccccc2)cc1 (centres undefined)  Ratio pIC50            0.47
2  O=C(OCC1CCCN(CCCc2ccccc2)C1)c1ccccc1N1C(=O)CC(CCc2ccccc2)C1=O (centres undefined)  Ratio pIC50            0.81
3  O=C(OCC1CCCN(CCCc2ccccc2)C1)c1ccccc1N1C(=O)CC(Cc2ccc(Cl)cc2)C1=O (centres undefined)  Ratio pIC50            0.14

Attention now turns to another entry.
Please give the measured Ratio pIC50 for this compound: CC1(C)OC2C3CC(C2O1)N(CCCc1ccccc1)CC3OC(=O)c1ccccc1-c1ccccc1 (centres undefined)
0.08

====

Target: Neuronal acetylcholine receptor; alpha3/beta4 (Homo sapiens, UniProt P30926+P32297)
Experiment: Antagonist activity at human nAChR alpha3/beta4 receptor expressed in HEK ts201 cells assessed as calcium accumulation by fluorescence analysis
Type: functional, cell-based
Settings: read-out: pIC50 (converted)
Entries and their measured log10(IC50) follow.
Response schema: value (number) is log10 of IC50 in units of µM.

Can you look up log10(IC50) on Neuronal acetylcholine receptor; alpha3/beta4 (Homo sapiens, UniProt P30926+P32297) for [N-]=[N+]=NCCCN1CCCC(COC(=O)c2ccccc2-c2ccccc2)C1 (single isomer, unassigned) ?
0.26

Identify the measured log10(IC50) of O=C(OCC1CCCN(CCCc2ccccc2)C1)c1ccccc1N1C(=O)CC(Cc2ccc(Cl)cc2)C1=O (stereo not drawn) for Neuronal acetylcholine receptor; alpha3/beta4 (Homo sapiens, UniProt P30926+P32297).
1.16

Enter reported log10(IC50) observed with Neuronal acetylcholine receptor; alpha3/beta4 (Homo sapiens, UniProt P30926+P32297) for CC1CC(=O)N(c2ccccc2C(=O)OC[C@@H]2C[C@H](C3CCCCC3)CN(CCCc3ccccc3)C2)C1=O (stereo partly drawn)
1.93

Can you look up log10(IC50) on Neuronal acetylcholine receptor; alpha3/beta4 (Homo sapiens, UniProt P30926+P32297) for CC1CC(=O)N(c2ccccc2C(=O)OC2CN(CCCc3ccccc3)C3CC2C2OC(C)(C)OC23)C1=O (stereo not drawn) ?
1.49

What measured log10(IC50) is associated with CC1CC(=O)N(c2ccccc2C(=O)OCC2CCCN(CCOc3ccc4ccccc4c3)C2)C1=O (stereo not drawn) on Neuronal acetylcholine receptor; alpha3/beta4 (Homo sapiens, UniProt P30926+P32297)?
0.83

Return log10(IC50) measured with Neuronal acetylcholine receptor; alpha3/beta4 (Homo sapiens, UniProt P30926+P32297) given this compound: COc1ccccc1C(=O)OCC1CCCN(CCCc2ccccc2)C1 (single isomer, unassigned)
1.08

Record lookup: for Neuronal acetylcholine receptor; alpha3/beta4 (Homo sapiens, UniProt P30926+P32297), what log10(IC50) belongs to CC1CC(=O)N(c2ccccc2C(=O)OCC2CCCN(CCCCCc3ccccc3)C2)C1=O (stereo not drawn) ?
0.62

Lab note: need log10(IC50) with Neuronal acetylcholine receptor; alpha3/beta4 (Homo sapiens, UniProt P30926+P32297) for entry COc1ccc(OCCN2CCCC(COC(=O)c3ccccc3N3C(=O)CC(C)C3=O)C2)cc1 (stereo not drawn) , please look it up.
1.08

Please state recorded log10(IC50) (tested on Neuronal acetylcholine receptor; alpha3/beta4 (Homo sapiens, UniProt P30926+P32297)) of O=C(OCC1CCCNC1)c1ccccc1-c1ccccc1 (single isomer, unassigned)
0.91

Value wanted: log10(IC50) (Neuronal acetylcholine receptor; alpha3/beta4 (Homo sapiens, UniProt P30926+P32297)) of entry O=C(OCC1CCCN(CCCc2ccccc2)C1)c1ccccc1N1C(=O)c2ccccc2C1=O (single isomer, unassigned)
0.77

So what log10(IC50) did CC1(C)OC2C3CC(C2O1)N(CCCc1ccccc1)CC3OC(=O)c1ccccc1-c1ccccc1 (stereo not drawn) get with Neuronal acetylcholine receptor; alpha3/beta4 (Homo sapiens, UniProt P30926+P32297)?
1.14

Under Neuronal acetylcholine receptor; alpha3/beta4 (Homo sapiens, UniProt P30926+P32297): log10(IC50) value of O=C(OCC1CCCN(CCCCCOc2ccc(Cl)cc2)C1)c1ccccc1-c1ccccc1 (stereo not drawn) ?
1.19

====

Species on record: Homo sapiens
Experiment: Selectivity ratio of pIC50 for human nAChR alpha3/beta4 receptor to pIC50 for human nAChR alpha4/beta2 receptor
PROPERTY: Ratio pIC50

Worked examples, 3 molecules total:
                                   molecule     property  measured_value
0  O=C(CCc1ccccc1)N1CCCC(CN(Cc2ccccc2-c2ccccc2)Cc2ccccc2-c2ccccc2)C1 (stereo not drawn)  Ratio pIC50            0.29
1  O=C(OCc1ccccc1-c1ccccc1)C1CCCN(CCCc2ccccc2)C1 (single isomer, unassigned)  Ratio pIC50            0.24
2  O=C(OCC1CCCN(CCCc2ccccc2)C1)c1ccccc1-n1cc(-c2ccccc2)nn1 (single isomer, unassigned)  Ratio pIC50            0.19

Recorded Ratio pIC50 for COc1ccc(OCCCCCN2CCCC(COC(=O)c3ccccc3N3C(=O)CC(C)C3=O)C2)cc1OC (stereo not drawn) , please?
2.38

Ratio pIC50 for COc1ccc(OCCN2CCCC(COC(=O)c3ccccc3N3C(=O)CC(C)C3=O)C2)cc1 (stereo not drawn) ?
-0.75

====

Organism: Homo sapiens
Experiment: Selectivity ratio of pIC50 for human nAChR alpha3/beta4 receptor to pIC50 for human nAChR alpha4/beta2 receptor
PROPERTY: Ratio pIC50
Answer as a number with no unit attached.

>>> df
                                   molecule  measured_value
0  CCN1CCCC(COC(=O)c2ccccc2N2C(=O)CC(Cc3ccccc3)C2=O)C1 (stereo not drawn)            0.42
1  CC1CC(=O)N(c2ccccc2C(=O)OCC2CCCN(CCOc3cccc(-c4ccccc4)c3)C2)C1=O (stereo not drawn)            0.57
2  CC1CC(=O)N(c2ccccc2C(=O)OCC2CCCN(CCc3c[nH]c4ccccc34)C2)C1=O (stereo not drawn)            1.12

Sample C[N+]1(C)CCCC(COC(=O)c2ccccc2-c2ccccc2)C1 (single isomer, unassigned) — what was its Ratio pIC50?
0.43

Suppose we examine the molecule O=C(OCC1CCCN(CCCc2ccccc2)C1)c1ccccc1C(F)(F)F (single isomer, unassigned) ; what Ratio pIC50 value has been reported?
-0.16

For the molecule shown here, O=C(NCC1CCCN(CCCc2ccccc2)C1)c1ccccc1-c1ccccc1 (single isomer, unassigned) , give the reported Ratio pIC50.
3.7

// returns reported Ratio pIC50 for input [N-]=[N+]=NCCCN1CCCC(COC(=O)c2ccccc2-c2ccccc2)C1 (single isomer, unassigned)
-0.38

Name the recorded Ratio pIC50 for O=C(OCC1CCN(CCCc2ccccc2)CC1)c1ccccc1-c1ccccc1 .
0.11

Sourced from ChEMBL document CHEMBL1949658
